# Experimental System: isolated recombinant JAK1 kinase domain (Homo sapiens (Human))
# Sequence (P23458 875-1153): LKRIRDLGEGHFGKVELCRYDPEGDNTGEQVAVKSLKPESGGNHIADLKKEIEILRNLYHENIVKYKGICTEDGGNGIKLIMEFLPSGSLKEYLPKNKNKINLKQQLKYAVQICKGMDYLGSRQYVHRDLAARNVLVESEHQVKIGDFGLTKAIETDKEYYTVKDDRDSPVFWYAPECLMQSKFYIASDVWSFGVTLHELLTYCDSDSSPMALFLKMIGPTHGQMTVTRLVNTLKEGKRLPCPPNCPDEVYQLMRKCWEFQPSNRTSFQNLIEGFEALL
# Assay Info: JAK1 enzyme assay (Caliper LabChip, peptide phosphorylation)
# Assay type: biochemical
# Run Parameters: isolated recombinant JAK1 kinase domain, 25 μM ATP
We label by threshold. Values of Ki strictly beneath 0.8 nM are 1.0. Values of 0.8 nM and up are 0.0.

Prompt: Does this molecule meet the criterion Ki < 0.8 nM? CN(C)C(=O)CN1CCN(C(=O)Cn2cc(NC(=O)c3cnn4cccnc34)c(-c3cc(Cl)ccc3OC(F)F)n2)CC1
Completion: 1.0

Prompt: Does this molecule meet the criterion Ki < 0.8 nM? CN1CCN(C(=O)C2CCN(C(=O)Cn3cc(NC(=O)c4cnn5cccnc45)c(-c4cc(Cl)ccc4OC(F)F)n3)CC2)CC1
Completion: 1.0

Prompt: Does this molecule meet the criterion Ki < 0.8 nM? O=C(Nc1cn(CC(=O)N2C[C@H]3CN(CCCOC(=O)C4CCC4)C[C@H]3C2)nc1-c1cc(Cl)ccc1OC(F)F)c1cnn2cccnc12
Completion: 0.0

Prompt: Does this molecule meet the criterion Ki < 0.8 nM? CN(C)C(=O)CN1CCN(CC2CCN(C(=O)Cn3cc(NC(=O)c4cnn5cccnc45)c(-c4cc(Cl)ccc4OC(F)F)n3)CC2)CC1
Completion: 1.0

Values were extracted from patent US9346815B2.
